Where a name gives a salt, the structure may show the parent alone.
Kindly apply the following: Satisfied if melting point is less than 90 °C, Not satisfied in every other case.

Known results for compounds:
CC(Nc1cc(F)cc(F)c1)c1cc(C(=O)N2CCNC(C(F)(F)F)C2)cc2ncc(N3CCOCC3)nc12 (stereo not drawn) [Compound 237]; Satisfied
CC(Nc1cc(Cl)cc(Cl)c1)c1cc(C(=O)N2CCOCC2)cc2ncc(N3CCOCC3)nc12 (stereo not drawn); Satisfied
COc1cc(NC(C)c2cc(C(=O)N3CCOCC3)cc3ncc(N4CCOCC4)nc23)cc(OC)c1 (stereo not drawn); Satisfied
OCCCNCc1cc(C2CCCN2c2cc(F)cc(F)c2)c2nc(N3CCOCC3)cnc2c1 (single isomer, unassigned); Satisfied
CC(C)N1CCN(C(=O)c2cc(C3CCCN3c3cc(F)cc(F)c3)c3nc(N4CCOCC4)cnc3c2)CC1 (stereo not drawn); Satisfied
C[C@H](Nc1cc(F)cc(F)c1)c1cc(C(=O)NCCN(C)C)cc2ncc(N3CCOCC3)nc12; Not satisfied
CC1CN(c2cnc3cc(C(=O)N(C)C)cc(C(C)Nc4cccc(F)c4)c3n2)CCO1 (stereo not drawn); Not satisfied
O=Cc1cc(C2CCCN2c2cc(F)cc(F)c2)c2nc(N3CCOCC3)cnc2c1 (stereo not drawn); Not satisfied

Task: For C[C@@H](Nc1cc(F)cc(F)c1)c1cc(C(=O)NCCN(C)C)cc2ncc(N3CCOCC3)nc12 (as salt: HCl) [Compound 184a] , is the recorded melting point below the cut-off of 90 °C?
Output: Satisfied

Task: Same lookup for COCCNC(=O)c1cc(C(C)Nc2cc(F)cc(F)c2)c2nc(N3CCOCC3)cnc2c1 (single isomer, unassigned) [Compound 204] , please.
Output: Satisfied

Task: Lookup Cc1cccc(N(C)C(C)c2cc(C(=O)N(C)C)cc3ncc(N4CCOCC4)nc23)c1 (single isomer, unassigned)
Output: Satisfied

Task: Same lookup for CC(C)NCc1cc(F)cc(N2CCCC2c2cc(C(=O)N(C)C)cc3ncc(N4CCOCC4)nc23)c1 (stereo not drawn) , please.
Output: Satisfied

Task: Note, next up: CN(C)C(=O)c1cc(C2CCCN2c2cc(F)cc(F)c2)c2nc(N3CCOCC3)cnc2c1 (stereo not drawn)
Output: Satisfied

Task: Thanks! And CC(Nc1cc(F)cc(F)c1)c1cc(CN2CCO[C@H](CO)C2)cc2ncc(N3CCOCC3)nc12 (single isomer, unassigned) (as salt: HCl) ?
Output: Satisfied

* * *

- TEST_TARGET: kinase enzymes (Homo sapiens)
- Construct: purchased DiscoveRx Corporation, San Diego (contract service, KINOMEscan)
- Sequence (P48736 whole entry): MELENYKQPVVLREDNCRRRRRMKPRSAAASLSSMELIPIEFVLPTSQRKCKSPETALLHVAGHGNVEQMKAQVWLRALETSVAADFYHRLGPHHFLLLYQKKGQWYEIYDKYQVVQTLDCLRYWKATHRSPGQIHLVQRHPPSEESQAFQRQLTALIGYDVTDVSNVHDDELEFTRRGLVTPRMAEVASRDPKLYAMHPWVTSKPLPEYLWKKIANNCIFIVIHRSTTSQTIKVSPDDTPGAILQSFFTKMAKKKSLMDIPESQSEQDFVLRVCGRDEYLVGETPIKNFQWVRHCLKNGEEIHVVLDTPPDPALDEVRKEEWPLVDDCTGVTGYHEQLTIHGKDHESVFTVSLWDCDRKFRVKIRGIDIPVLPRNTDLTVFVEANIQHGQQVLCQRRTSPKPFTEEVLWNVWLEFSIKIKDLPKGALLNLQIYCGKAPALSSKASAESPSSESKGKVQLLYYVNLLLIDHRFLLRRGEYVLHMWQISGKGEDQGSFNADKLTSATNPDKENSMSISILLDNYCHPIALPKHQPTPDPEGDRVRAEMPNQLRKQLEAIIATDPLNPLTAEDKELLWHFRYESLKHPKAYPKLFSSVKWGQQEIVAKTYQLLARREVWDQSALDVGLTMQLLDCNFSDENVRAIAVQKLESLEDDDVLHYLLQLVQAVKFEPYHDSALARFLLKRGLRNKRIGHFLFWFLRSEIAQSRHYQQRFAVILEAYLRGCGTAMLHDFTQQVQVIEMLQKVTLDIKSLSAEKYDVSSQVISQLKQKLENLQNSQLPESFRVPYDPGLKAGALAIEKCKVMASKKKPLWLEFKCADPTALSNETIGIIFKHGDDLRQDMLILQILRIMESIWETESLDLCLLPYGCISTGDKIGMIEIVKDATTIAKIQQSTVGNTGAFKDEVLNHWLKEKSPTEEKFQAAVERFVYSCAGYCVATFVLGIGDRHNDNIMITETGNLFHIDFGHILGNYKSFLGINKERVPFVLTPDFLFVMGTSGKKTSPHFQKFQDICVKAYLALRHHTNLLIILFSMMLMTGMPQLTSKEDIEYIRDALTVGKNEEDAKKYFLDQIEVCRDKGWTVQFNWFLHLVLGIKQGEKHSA
- PROTOCOL_NOTES: Enzyme binding assay (KINOMEscan, DiscoveRx), further kinases of Table A
- CONDITION_SET: PIK3Cγ_h
pKd: −log10 of the molar value.
pKd vs 5: at or above is TRUE, below is FALSE.

Solved cases (8 shown):
CC(Nc1cccc(F)c1)c1cc(C(=O)N2CC[C@@H](O)C2)cc2ncc(N3CCOCC3)nc12 (single isomer, unassigned) [Compound 321a]; TRUE
CNCCNC(=O)c1cc(C(C)Oc2cc(F)cc(F)c2)c2nc(N3CCOCC3)cnc2c1 (single isomer, unassigned); TRUE
CC(Nc1ccc(F)c(F)c1)c1cc(C(=O)NCCCO)cc2ncc(N3CCOCC3)nc12 (single isomer, unassigned) [Compound 280b]; FALSE
CC(Oc1cc(F)ccc1NCCN)c1cc(C(=O)N(C)C)cc2ncc(N3CCOCC3)nc12 (centres unmarked); FALSE
CC(Nc1ccc(F)c(F)c1)c1cc(C(=O)NCCN(C)C)cc2ncc(N3CCOCC3)nc12 (centres unmarked) [Compound 299b]; FALSE
CC(C)NCCNC(=O)c1cc(C(C)Nc2cc(F)cc(F)c2)c2nc(N3CCOCC3)cnc2c1 (single isomer, unassigned); TRUE
CNC(=O)c1cc(C2CCCN2c2cc(F)cc(F)c2)c2nc(N3CCOCC3)cnc2c1 (single isomer, unassigned); TRUE
COCCNC(=O)c1cc(C(C)Nc2cc(F)cc(F)c2)c2nc(N3CCOCC3)cnc2c1 (single isomer, unassigned); FALSE

Task: Does the compound C[C@@H]1CN(c2cnc3cc(C(=O)N(C)C)cc(C4CCCN4c4cc(F)cc(F)c4)c3n2)CCO1 (some centres unmarked) [Compound 3] have recorded pKd that is 5 or more?
Output: TRUE

Task: Moving on to the next compound: O=C(NCCO)c1cc(N2CCC2c2ccc(F)cc2)c2nc(N3CCOCC3)cnc2c1 (single isomer, unassigned) [Compound 391b]
Output: FALSE
